Cited source: paper PMC8237267

# ASSAYED_TARGET: HDAC11 (Homo sapiens, UniProt Q96DB2)
# Construct: The full-length human HDACs were recombinantly expressed and purified from SF9 insect cells; host or cells: SF9 insect cells
# Sequence (Q96DB2 whole entry): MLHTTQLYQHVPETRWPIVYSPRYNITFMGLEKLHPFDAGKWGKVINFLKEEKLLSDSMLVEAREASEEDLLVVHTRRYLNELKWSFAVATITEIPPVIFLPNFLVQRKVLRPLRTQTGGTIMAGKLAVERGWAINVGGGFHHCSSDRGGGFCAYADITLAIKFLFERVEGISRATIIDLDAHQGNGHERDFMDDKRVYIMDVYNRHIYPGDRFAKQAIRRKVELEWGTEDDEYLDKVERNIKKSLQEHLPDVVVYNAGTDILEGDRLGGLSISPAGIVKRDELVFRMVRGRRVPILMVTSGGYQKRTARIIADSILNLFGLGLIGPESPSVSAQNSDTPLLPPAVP
# METHOD_DESCRIPTION: HDAC EMSA activity assay (Nanosyn)
# Format: biochemical
# SETUP_CONDITIONS: recombinant enzyme, read-out: In vitro IC50 HDAC11
pIC50: −log10 of the molar value.
Reported pIC50 is given for each of the following compounds.

For the compound shown here, "CC(C)N(Cc1ccc(C(=O)NO)cc1)S(=O)(=O)c1c(F)c(F)c(F)c(F)c1F" , give the reported pIC50.
6.03

# iterate: "O=C(NO)c1ccc(CNS(=O)(=O)c2c(F)c(F)c(F)c(F)c2F)cc1"
< 6.00

Next compound, pIC50 to be filled in.
For the compound shown here, "O=C(NO)c1cccc(CN(C2CC2)S(=O)(=O)c2c(F)c(F)c(F)c(F)c2F)c1" , give the reported pIC50.
< 6.00
